This document collects GI50 values reported for HCT-15.

[
  {
    "COMPOUND": "N=c1oc2c(Br)cc(Br)cc2cc1C(=O)Nc1ccccn1",
    "QUALIFIER SIGN": "=",
    "GI50 [µM]": 38.9
  },
  {
    "COMPOUND": "COc1cc(-c2coc3c(OC)c(OC4OC(COC5OC(C)C(O)C(O)C5O)C(O)C(O)C4O)c(OC)c(O)c3c2=O)cc(C)c1O (stereo not drawn)",
    "QUALIFIER SIGN": "=",
    "GI50 [µM]": 16.4
  },
  {
    "COMPOUND": "Cc1cc(C#N)c[n+](C)c1",
    "QUALIFIER SIGN": ">",
    "GI50 [µM]": 100
  },
  {
    "COMPOUND": "CCCCc1c2c(c(C)c3c1C(=O)OC3)Oc1ccccc1O2",
    "QUALIFIER SIGN": "=",
    "GI50 [µM]": 0.708
  },
  {
    "COMPOUND": "CCOC(=O)C12CN(C34CC5CC(CC(C5)C3)C4)CC(C(=O)OCC)(C1=O)C(c1ccccc1)OC2c1ccccc1 (stereo not drawn)",
    "QUALIFIER SIGN": ">",
    "GI50 [µM]": 100
  },
  {
    "COMPOUND": "CC(C)(C)c1cc(OCc2nnc3sc(S)nn23)c(Cl)cc1OCc1nnc2sc(S)nn12",
    "QUALIFIER SIGN": "=",
    "GI50 [µM]": 40.6
  },
  {
    "COMPOUND": "C1=C[C@]2(CCC13OCCO3)COc1ccccc12",
    "QUALIFIER SIGN": "=",
    "GI50 [µM]": 28
  },
  {
    "COMPOUND": "O=C(Cn1c2c(c3ccccc31)CCCC2)N1CCOCC1",
    "QUALIFIER SIGN": ">",
    "GI50 [µM]": 100
  },
  {
    "COMPOUND": "CC1=NN(C(=O)CC(=O)Nc2ccccc2)C(=O)C1/N=N/c1ccc(C(=O)O)cc1 (stereo not drawn)",
    "QUALIFIER SIGN": ">",
    "GI50 [µM]": 100
  },
  {
    "COMPOUND": "O=C1CCC2(CC1CCSc1ccccc1)OCCO2 (stereo not drawn)",
    "QUALIFIER SIGN": ">",
    "GI50 [µM]": 100
  },
  {
    "COMPOUND": "COc1ccc(/C=C2\\CCC(CNc3cc(C)on3)C2=O)cc1 (stereo not drawn)",
    "QUALIFIER SIGN": ">",
    "GI50 [µM]": 100
  },
  {
    "COMPOUND": "O=[N+]([O-])c1ccc2nc3ccccc3cc2c1",
    "QUALIFIER SIGN": "=",
    "GI50 [µM]": 1.37
  },
  {
    "COMPOUND": "CN(C)C(=S)/N=c1\\ss/c(=N\\C(=S)N(C)C)n1Cc1ccco1",
    "QUALIFIER SIGN": ">",
    "GI50 [µM]": 100
  }
]
